Recorded values, source patent US9949980B2.

procedure_details: in vitro
particulars: human
We begin with a simple list: items and their reported viability at 52 h, 3.3 μM.
Could you give me the number in %? Just the number is fine.

Identify viability at 52 h, 3.3 μM associated with the molecule COc1ccc(C(O)(CNCc2ccccc2)c2ccc(Br)cc2)cc1 (centres unmarked) [Compound 9]
102

Identify viability at 52 h, 3.3 μM associated with the molecule Cc1cc(C(c2ccc(F)cc2)c2cc(C)c(NC(=O)c3ccccc3)c(C)c2)cc(C)c1NC(=O)c1ccccc1 [Compound 14]
106

Identify viability at 52 h, 3.3 μM associated with the molecule COC(=O)C1=C(C)NC2=C(C(=O)c3ccccc32)C1c1cc2c(cc1Br)OCO2 (centres unmarked) [Compound 11]
97.3

Identify viability at 52 h, 3.3 μM associated with the molecule Cc1ccc(C2Nc3ccccc3NC3=C2C(=O)CC(c2ccccc2)C3)s1 (centres unmarked) [Compound 22]
93.7

Identify viability at 52 h, 3.3 μM associated with the molecule CCOc1ccc(C(=O)Nc2ccc3oc(-c4ccccc4Br)nc3c2)cc1 [Compound 15]
95.7

----------
procedure_details: in vitro
particulars: human, Viability (CelTiter Glow)
Protocol: FIG. 1. High throughout screen (HTS) for identifying inhibitors of HPV infection. Shown is a schematic showing basic steps in the HTS. […] Briefly, HPV16 pseudoviruses containing the SEAP reporter genes are analyzed for their ability to infect as judged by the levels of secreted alkaline phosphatase in the tissue culture supernatant (light grey arrows). Cell viability was assessed in parallel on the same wells (dark grey arrows). […]
attribute_measured: viability at 52 h, 3 μM (%)
Could you give me the number in %? Just the number is fine.

Use the examples below as a reference point.
[[record]]
molecule = "Cc1ccc(S(=O)(=O)N(C)c2ccc(Br)cc2C(=O)c2ccccc2)cc1"
assay_result = 95

[[record]]
molecule = "COc1ccc(OC)c(NC(=O)CN(c2cc(OC)ccc2OC)S(C)(=O)=O)c1"
assay_result = 109

[[record]]
molecule = "CCOc1ccc(N(CC(=O)Nc2c(C)cccc2C)S(=O)(=O)c2ccc(SC)cc2)cc1"
assay_result = 104

[[record]]
molecule = "Cc1ccc2nc3nc(C)cc(C)c3c(N)c2c1"
assay_result = 68

[[record]]
molecule = "O=C(NC(NC(=S)Nc1ccccc1[N+](=O)[O-])C(Cl)(Cl)Cl)c1ccco1 (stereo not drawn)"
assay_result = 108

[[record]]
molecule = "COc1cccc(C(=O)Nc2ccc3oc(-c4ccc(F)cc4Cl)nc3c2)c1"
assay_result = 111

[[record]]
molecule = "Cc1ccc(NC(=O)Cc2ccc(F)cc2)cc1"
assay_result = 105

[[record]]
molecule = "N#CCCN1CCCN(CCC#N)CCN(CCC#N)CCCN(CCC#N)CC1"
assay_result = 99.9


Continue with the next molecule.
Identify viability at 52 h, 3 μM associated with the molecule COc1cc(NC(=O)COc2ccccc2C)ccc1NC(=O)c1ccco1
106

----------
Tested on: HPV16 pseudoviruses
procedure_details: microbe, parasite or virus in culture
Assay type: cell-based
particulars: Human papillomavirus 16, HEK-293T, 48 h, read-out: Infectivity (SEAP Activity), 3 μM HTS standard concentration, 293T cells, 48 hrs
We begin with a simple list: items and their reported activity at 3 µM.
Could you give me the number in %? Just the number is fine.

Use the examples below as a reference point.
[[record]]
smiles = "O=C1NC(=S)SC1=Cc1cc(Cl)c(OCc2ccccc2)c(Cl)c1"
study_target = "HPV16 pseudoviruses"
units = "%"
assay_result = 61.2

[[record]]
smiles = "CCOc1cccc(C(=O)Nc2ccc(NC(=O)c3ccco3)c(OC)c2)c1"
study_target = "HPV16 pseudoviruses"
units = "%"
assay_result = 54.6

[[record]]
smiles = "COc1ccccc1CC(N)=NOC(=O)COc1ccc(C)cc1"
study_target = "HPV16 pseudoviruses"
units = "%"
assay_result = 53.8

[[record]]
smiles = "Cc1cc(C(c2ccc(F)cc2)c2cc(C)c(NC(=O)c3ccccc3)c(C)c2)cc(C)c1NC(=O)c1ccccc1"
study_target = "HPV16 pseudoviruses"
units = "%"
assay_result = 51


Identify activity at 3 µM associated with the compound Oc1ccccc1C=NNc1nc2c(Cl)cc(Cl)cc2s1
34.6

Identify activity at 3 µM associated with the compound Cc1c(NS(=O)(=O)c2cc(Cl)ccc2Cl)cccc1[N+](=O)[O-]
22.3

Identify activity at 3 µM associated with the compound COc1cccc(NC(=O)c2ccc(C)c([N+](=O)[O-])c2)c1
43

Identify activity at 3 µM associated with the compound O=C(Nc1ccc(Cl)cc1)Nc1ccc([N+](=O)[O-])cc1Br
39.9

Identify activity at 3 µM associated with the compound CC(C)(C)NC(=O)C=Cc1cc([N+](=O)[O-])ccc1Sc1ccc(C(F)(F)F)cn1
28.9
